biological target: OTU domain-containing protein 3 (Homo sapiens); assay: Validation of screening hits, potency titration, in vitro enzymatic, OTU domain-containing protein 3 DUB inhibitors (AID 1645868); details: purified OTUD3, ubiquitin-rhodamine cleavage fluorescence, 2 h
The source made the active and inactive calls.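 How the source made its calls: active means maximal percent inhibition of the deubiquitinase OTUD3 of at least 30% across the tested doses; inactive means the rest.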
Choose the fitting class; nothing outside active, inactive is accepted.

IN: Give the logged outcome of this assay for the following compound: "COc1ccc(NC(=O)c2ccc(Nc3nnc(C)c4ccccc34)cc2)cc1"
OUT: inactive

IN: Can you look up the reported call for "O=C(COc1ccc(Cl)cc1)Nc1noc(-c2ccccc2)n1" for me?
OUT: active

IN: What was the test verdict on COc1ccc(C(C(=O)NC2CCCCC2)N(C(=O)CCCC(=O)Nc2ccccn2)c2ccccc2C)cc1 (stereo not given) ?
OUT: active

IN: Kindly provide the recorded test outcome for the following compound: "Cn1c(CN2CCCCCC2)nc2cc(NC(=O)c3ccccc3)ccc21"
OUT: inactive

IN: So what was the verdict on "Cn1c(CCNC(=O)c2[nH]nc3c2CCc2ccccc2-3)nc2ccccc21" in this test?
OUT: active

====

target: OTU domain-containing protein 3 (Homo sapiens); test: Validation of screening hits, potency titration, in vitro enzymatic, OTU domain-containing protein 3 DUB inhibitors (AID 1645868); conditions: purified OTUD3, ubiquitin-rhodamine cleavage fluorescence, 2 h
Calls of active or inactive are those of the source.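 Rule for the calls: active = maximal percent inhibition of the deubiquitinase OTUD3 of at least 30% across the tested doses; inactive = the rest.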
Permitted responses: 1 (active), 0 (inactive)

Worked examples follow.
>  <MOLECULE>
Cc1ccc(-c2nc(Cn3cnc4ccccc4c3=O)cs2)cc1

>  <LABEL_CLASS>
1

$$$$
>  <MOLECULE>
O=C(Nc1cccc2ccccc12)N1CCC(c2nc3c(nnn3Cc3ccc(F)cc3)c(=O)[nH]2)CC1

>  <LABEL_CLASS>
0

$$$$

IN: Would you mind telling me which call this test gave O=C1NCCCC1Cc1ccc(-c2cccc(C(=O)N3CCc4ccccc4C3)c2)cc1 (centres undefined) ?
OUT: 0

IN: # outcome recorded in this test, key = "O=C(Nc1ccc(F)cc1F)c1csc(-c2ccccc2)n1"
OUT: 1

IN: Could you please tell me the result logged for "O=C(NCc1ccc2c(c1)OCO2)c1nn(C23CC4CC(CC(C4)C2)C3)cc1[N+](=O)[O-]" in this assay?
OUT: 0

====

target: OTU domain-containing protein 3 (Homo sapiens); assay: Validation of screening hits, potency titration, in vitro enzymatic, OTU domain-containing protein 3 DUB inhibitors (AID 1645868); details: purified OTUD3, ubiquitin-rhodamine cleavage fluorescence, 2 h
Calls of active or inactive are those of the source.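 The calls were made as follows: active = maximal percent inhibition of the deubiquitinase OTUD3 of at least 30% across the tested doses; inactive = the rest.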
Respond using exactly one of the listed classes: class 1 for active, class 0 for inactive

>  <COMPOUND>
Cc1ccc2c(c1)N=C(c1ccc([N+](=O)[O-])cc1)CO2

>  <LABEL_CLASS>
class 0

$$$$
>  <COMPOUND>
O=C(NCC1CC1)C1CCCN(c2ccc(-c3ccccc3)nn2)C1 (configuration not stated)

>  <LABEL_CLASS>
class 0

$$$$
>  <COMPOUND>
O=C(Cn1c(=O)n(Cc2ccc(F)cc2)c(=O)c2sccc21)Nc1cccc(Cl)c1

>  <LABEL_CLASS>
class 1

$$$$
>  <COMPOUND>
FC(F)(F)c1ccccc1CCN1CCc2nc3ccc(Cl)cc3cc2C1

>  <LABEL_CLASS>
class 0

$$$$
>  <COMPOUND>
CN(C)C1CCN(C(=O)c2cc(-c3ccn(-c4ccccc4)n3)n3ccccc23)CC1

>  <LABEL_CLASS>
class 0

$$$$

IN: Recorded call for "Cc1ccc(-n2nc(C(=O)Nc3ccc(C)cn3)c3ncn(C)c(=O)c32)cc1" ?
OUT: class 1

IN: For "Cc1ccc(NC(=O)c2nnn(-c3ccccc3Br)c2C)cc1C" , which call appears in the assay record?
OUT: class 0

====

biological target: OTU domain-containing protein 3 (Homo sapiens) (UniProt Q5T2D3); test: Validation of screening hits, potency titration, in vitro enzymatic, OTU domain-containing protein 3 DUB inhibitors (AID 1645868); details: purified OTUD3, ubiquitin-rhodamine cleavage fluorescence, 2 h
Sequence (Q5T2D3 whole entry, looked up, the tested form may be a part): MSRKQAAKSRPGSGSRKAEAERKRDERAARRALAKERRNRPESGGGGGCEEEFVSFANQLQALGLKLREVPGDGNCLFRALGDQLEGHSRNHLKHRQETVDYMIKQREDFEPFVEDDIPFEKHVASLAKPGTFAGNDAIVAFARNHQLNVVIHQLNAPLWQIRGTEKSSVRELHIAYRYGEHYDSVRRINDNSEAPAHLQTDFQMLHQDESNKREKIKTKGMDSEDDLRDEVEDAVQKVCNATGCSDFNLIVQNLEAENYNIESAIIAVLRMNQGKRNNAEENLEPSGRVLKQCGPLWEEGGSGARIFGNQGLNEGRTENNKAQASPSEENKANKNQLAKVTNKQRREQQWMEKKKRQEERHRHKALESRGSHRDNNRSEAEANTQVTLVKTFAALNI
Calls of active or inactive are those of the source.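 Rule for the calls: active = maximal percent inhibition of the deubiquitinase OTUD3 of at least 30% across the tested doses; inactive = the rest.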
TEST_READOUT: IC50

Here is how some compounds turned out for IC50.
>  <COMPOUND>
COc1ccc(Cn2c(SCc3ccc(C(=O)NCCc4ccccc4)cc3)nc3ccncc32)cc1

>  <MEASURED_TARGET>
OTU domain-containing protein 3 (Homo sapiens) (UniProt Q5T2D3)

>  <IC50>
> 50 µM (inactive)

$$$$
>  <COMPOUND>
CC1Cc2ccccc2N1C(=O)Cn1c(=O)cc(O)c2ccccc21 (configuration not stated)

>  <MEASURED_TARGET>
OTU domain-containing protein 3 (Homo sapiens) (UniProt Q5T2D3)

>  <IC50>
> 50 µM (inactive)

$$$$
>  <COMPOUND>
CCOc1ccccc1NC(=O)COC(=O)C(c1ccccc1)c1ccccc1

>  <MEASURED_TARGET>
OTU domain-containing protein 3 (Homo sapiens) (UniProt Q5T2D3)

>  <IC50>
> 50 µM (inactive)

$$$$
>  <COMPOUND>
CCc1ccc(OCc2nnc(SCC(=O)Nc3ccccc3OC)n2Cc2ccccc2)cc1

>  <MEASURED_TARGET>
OTU domain-containing protein 3 (Homo sapiens) (UniProt Q5T2D3)

>  <IC50>
> 50 µM (inactive)

$$$$
>  <COMPOUND>
O=c1oc2ccccc2c2nn(-c3ccccn3)cc12

>  <MEASURED_TARGET>
OTU domain-containing protein 3 (Homo sapiens) (UniProt Q5T2D3)

>  <IC50>
> 50 µM (inactive)

$$$$
>  <COMPOUND>
COc1c2nc3ccccc3oc-2cc(=O)c1OC

>  <MEASURED_TARGET>
OTU domain-containing protein 3 (Homo sapiens) (UniProt Q5T2D3)

>  <IC50>
> 50 µM (inactive)

$$$$

IN: Quick one: give measured IC50 for "O=C(Nc1cccc(Cl)c1)N1CCC(c2cc(-c3ccco3)n[nH]2)CC1"
OUT: > 50 µM (inactive)

IN: State its IC50 for this compound: COc1c(C)c(C(O)C(C)O)c2[nH]c3ccc(CC=C(C)C)cc3c2c1O (configuration not stated)
OUT: 25.6 µM

IN: Determine from records and report IC50 for "FC(F)(F)c1ccccc1CCN1CCc2nc3ncc(Cl)cc3cc2C1"
OUT: > 50 µM (inactive)

IN: Report measured IC50; entry is "Cc1nnc(-c2nnc(NCc3ccc(Cl)cc3)c3ccccc23)o1"
OUT: > 50 µM (inactive)

IN: Give IC50 for "O=S1(=O)CCN(Cc2c(F)cccc2F)c2c(F)nc(N3CCOCC3)c(F)c21"
OUT: > 50 µM (inactive)

====

biological target: OTU domain-containing protein 3 (Homo sapiens); test: Validation of screening hits, potency titration, in vitro enzymatic, OTU domain-containing protein 3 DUB inhibitors (AID 1645868); settings: purified OTUD3, ubiquitin-rhodamine cleavage fluorescence, 2 h
The source made the active and inactive calls.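 The calls were made as follows: active = maximal percent inhibition of the deubiquitinase OTUD3 of at least 30% across the tested doses; inactive = the rest.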
Field 'call' accepts active, inactive

Would you please look over these solved cases?
>  <COMPOUND>
CC(=O)Nc1ccc(S(=O)(=O)NCc2ccc(C(=O)NCCc3ccc(Cl)cc3)cc2)cc1

>  <LABEL_CLASS>
active

$$$$
>  <COMPOUND>
Cc1cc(-n2c(C)cc(-c3csc(N)n3)c2C)no1

>  <LABEL_CLASS>
inactive

$$$$
>  <COMPOUND>
CC(C)=CCCC1(C)OC2=C(C(=O)c3cc(O)cc(O)c3C2=O)[C@H]2C=C(C)CC[C@H]21 (stereo not given in full)

>  <LABEL_CLASS>
inactive

$$$$
>  <COMPOUND>
CCN1C(=O)COc2ccc(NC(=O)c3ccc(OCc4nonc4C)cc3)cc21

>  <LABEL_CLASS>
inactive

$$$$

Could you now consider this next compound?
IN: // return assay outcome for "O=C(Cn1c(=O)n(Cc2ccco2)c(=O)c2ccc(C(=O)NC3CCCC3)cc21)NCc1ccco1"
OUT: inactive

====

target: OTU domain-containing protein 3 (Homo sapiens); assay: Validation of screening hits, potency titration, in vitro enzymatic, OTU domain-containing protein 3 DUB inhibitors (AID 1645868); conditions: purified OTUD3, ubiquitin-rhodamine cleavage fluorescence, 2 h
Activity calls are given as the source filed them.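 How the source made its calls: active means maximal percent inhibition of the deubiquitinase OTUD3 of at least 30% across the tested doses; inactive means the rest.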
The reply should be one of these categories: active, inactive

IN: Outcome logged for C=C(NC(=O)C(=C)NC(=O)c1csc(C2=N[C@@H]3c4csc(n4)[C@H]4NC(=O)c5csc(n5)[C@H]([C@](C)(O)[C@@H](C)O)NC(=O)C5CSC(=N5)/C(=C/C)NC(=O)C([C@@H](C)O)NC(=O)c5csc(n5)[C@]3(CC2)NC(=O)[C@H](C)NC(=O)C(=C)NC(=O)[C@H](C)NC(=O)C([C@@H](C)CC)NC2C=Cc3c(C(C)O)cc(nc3[C@H]2O)C(=O)OC4C)n1)C(N)=O (some centres not stated) in this assay:
OUT: inactive

IN: Record lookup: outcome of this test for "CCN(c1ccc(NC(=O)CSc2nnc(-c3ccccc3)n2-c2ccc(OC)c(OC)c2)cc1)C(C)C" ?
OUT: active

IN: Just curious, what result did "COC(=O)c1sc2ccccc2c1NC(=O)c1ccc(Br)s1" get here?
OUT: active

IN: Answer briefly: the call reported for "O=[N+]([O-])c1ccc2c(c1)nc1n2CCN(Cc2ccco2)C1" in this assay.
OUT: inactive

IN: Each compound tested received a call. Report the one for "Cc1cccc(-c2noc(CCn3c(=O)[nH]c4ccccc4c3=O)n2)c1" .
OUT: inactive

IN: For "Cc1ccc(NC(=O)c2cc(-c3cccnc3)n(-c3ccccc3)n2)nc1" , what call appears in the results of this test?
OUT: inactive

meta.source: PubChem BioAssay AID1645868
